molecular target: BRG-1 (Homo sapiens); construct: made in house; host or cells: High Five insect cells; test: ATPase catalytic activity assay (ADP-Glo), BRG-1; assay type: biochemical; details: 30 nM BRG-1, 400 μM ATP, 20 nM salmon sperm DNA, read-out: BRG1 IP50 (μM)*
Sequence (P51532 whole entry): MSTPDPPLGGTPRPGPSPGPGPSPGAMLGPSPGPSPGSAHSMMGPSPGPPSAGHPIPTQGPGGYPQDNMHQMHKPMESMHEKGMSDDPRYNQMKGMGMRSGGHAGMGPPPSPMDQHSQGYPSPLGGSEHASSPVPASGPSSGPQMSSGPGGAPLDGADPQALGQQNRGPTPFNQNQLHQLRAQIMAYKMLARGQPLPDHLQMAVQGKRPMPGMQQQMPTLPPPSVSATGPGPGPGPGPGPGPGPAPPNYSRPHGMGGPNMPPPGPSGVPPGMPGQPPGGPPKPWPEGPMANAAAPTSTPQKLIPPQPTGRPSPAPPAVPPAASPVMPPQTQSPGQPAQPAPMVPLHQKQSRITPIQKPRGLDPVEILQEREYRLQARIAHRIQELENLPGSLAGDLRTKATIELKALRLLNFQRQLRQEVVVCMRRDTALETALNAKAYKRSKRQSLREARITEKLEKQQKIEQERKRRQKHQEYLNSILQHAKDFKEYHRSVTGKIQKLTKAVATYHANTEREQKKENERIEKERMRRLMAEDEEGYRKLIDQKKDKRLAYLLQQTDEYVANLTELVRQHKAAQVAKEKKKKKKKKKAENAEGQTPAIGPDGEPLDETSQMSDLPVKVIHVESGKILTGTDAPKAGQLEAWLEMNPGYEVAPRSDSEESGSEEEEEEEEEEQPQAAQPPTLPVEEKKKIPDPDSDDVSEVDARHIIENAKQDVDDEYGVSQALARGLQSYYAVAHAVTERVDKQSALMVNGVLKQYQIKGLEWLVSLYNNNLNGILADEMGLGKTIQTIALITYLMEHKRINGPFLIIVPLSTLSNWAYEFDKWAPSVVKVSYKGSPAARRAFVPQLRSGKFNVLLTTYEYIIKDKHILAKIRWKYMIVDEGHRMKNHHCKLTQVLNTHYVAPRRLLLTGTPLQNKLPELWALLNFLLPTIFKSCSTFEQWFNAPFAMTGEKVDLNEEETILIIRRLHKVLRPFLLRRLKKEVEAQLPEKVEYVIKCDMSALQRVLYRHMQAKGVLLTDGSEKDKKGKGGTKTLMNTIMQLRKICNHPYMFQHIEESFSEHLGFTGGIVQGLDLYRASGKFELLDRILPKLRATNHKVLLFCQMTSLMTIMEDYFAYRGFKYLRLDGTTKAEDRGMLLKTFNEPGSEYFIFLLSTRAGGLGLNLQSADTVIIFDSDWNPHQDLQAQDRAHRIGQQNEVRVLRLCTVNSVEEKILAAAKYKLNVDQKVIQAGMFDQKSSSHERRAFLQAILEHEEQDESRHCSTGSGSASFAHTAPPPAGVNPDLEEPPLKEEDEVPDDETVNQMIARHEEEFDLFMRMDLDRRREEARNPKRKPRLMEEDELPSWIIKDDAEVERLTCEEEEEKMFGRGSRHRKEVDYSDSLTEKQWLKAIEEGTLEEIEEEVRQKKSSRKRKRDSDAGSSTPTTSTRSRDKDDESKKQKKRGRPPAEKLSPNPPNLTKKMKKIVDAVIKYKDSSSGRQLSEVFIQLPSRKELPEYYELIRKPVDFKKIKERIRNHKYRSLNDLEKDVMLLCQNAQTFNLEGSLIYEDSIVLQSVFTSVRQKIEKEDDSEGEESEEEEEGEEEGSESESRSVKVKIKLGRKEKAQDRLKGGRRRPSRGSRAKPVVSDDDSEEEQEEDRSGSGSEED
observable: IC50

> print(dat)
                           molecular.string         target.system  assay.result
1  Cc1cc(-c2cccc(-c3csc(NC(=O)CNC(=O)c4cc(Cl)n(S(=O)(=O)C(C)C)c4)n3)n2)ncn1  BRG-1 (Homo sapiens)   0.1 to 1 µM
2  CS(=O)(=O)n1cc(C(=O)NCC(=O)Nc2nc(-c3cccc(-c4ccncc4)c3)cs2)c2ccccc21  BRG-1 (Homo sapiens)        > 5 µM
3  Cc1c(C(=O)NCC(=O)Nc2nc(-c3cccc(N4C[C@@H](C)O[C@@H](C)C4)c3)cs2)cnn1C(C)(C)C  BRG-1 (Homo sapiens)   0.1 to 1 µM

---

molecular target: BRM (Homo sapiens); construct: made in house; host or cells: High Five insect cells; experiment: ATPase catalytic activity assay (ADP-Glo), BRM; type: biochemical; settings: 30 nM BRM, 400 μM ATP, 20 nM salmon sperm DNA, read-out: BRM IP50 (μM)*
Listing of entries alongside the reported IC50.
observable: IC50

> print(dat)
                                    compound  observable  assay.result
 1  Cc1cc(-c2cccc(-c3csc(NC(=O)CNC(=O)c4cc(Cl)n(S(=O)(=O)C(C)C)c4)n3)c2)nc(C)n1 [Compound 32]        IC50      < 0.1 µM
 2  Cc1cc(-c2cccc(-c3csc(NC(=O)CNC(=O)c4cc(Cl)n(S(=O)(=O)C(C)C)c4)n3)n2)ncn1 [Compound 27]        IC50   0.1 to 1 µM
 3  Cc1cc(C(=O)NCC(=O)Nc2nc(-c3cccc(-c4ccnc(N(C)CC(=O)O)c4)c3)cs2)cn1S(C)(=O)=O [Compound 45]        IC50      < 0.1 µM
 4  Cc1cc(-c2cccc(-c3csc(NC(=O)CNC(=O)c4cn(S(=O)(=O)C(C)C)c5c4CCCC5)n3)c2)cc(C)n1 [Compound 20]        IC50   0.1 to 1 µM
 5  CC(C)S(=O)(=O)n1cc(C(=O)NCC(=O)Nc2nc(-c3cccc(N4CCC(O)CC4)c3)cs2)cc1Cl [Compound 40]        IC50   0.1 to 1 µM
 6  Cc1cc(C(=O)NCC(=O)Nc2nc(-c3cccc(N4C[C@@H](C)O[C@@H](C)C4)n3)cs2)cn1S(=O)(=O)C(C)C [Compound 38]        IC50   0.1 to 1 µM
 7  Cc1cc(-c2cccc(-c3csc(NC(=O)CNC(=O)c4cc(CO)n(S(=O)(=O)C(C)C)c4)n3)c2)cc(C)n1 [Compound 25]        IC50      < 0.1 µM
 8  C[C@@H]1CN(c2cccc(-c3csc(NC(=O)CNC(=O)c4cn(S(C)(=O)=O)c5ccccc45)n3)c2)C[C@H](C)O1 [Compound 26]        IC50   0.1 to 1 µM
 9  Cc1nccc(-c2cccc(-c3csc(NC(=O)CNC(=O)c4cc(Cl)n(S(=O)(=O)C(C)C)c4)n3)n2)n1 [Compound 24]        IC50   0.1 to 1 µM
10  Cc1c(C(=O)NCC(=O)Nc2nc(-c3cccc(N4C[C@@H](C)O[C@@H](C)C4)c3)cs2)cnn1C(C)(C)C [Compound 42]        IC50   0.1 to 1 µM

---

molecular target: BRG-1 (Homo sapiens); construct: made in house; host or cells: High Five insect cells; test: ATPase catalytic activity assay (ADP-Glo), BRG-1; assay type: biochemical; conditions: 30 nM BRG-1, 400 μM ATP, 20 nM salmon sperm DNA, read-out: BRG1 IP50 (μM)*
Listing of entries alongside the reported IC50.
observable: IC50

> print(dat)
                            molecular.string         target.system  observable  assay.result
 1  CS(=O)(=O)n1cc(C(=O)NCC(=O)Nc2nc(-c3cccc(-c4ccncc4)c3)cs2)c2ccncc21  BRG-1 (Homo sapiens)        IC50     1 to 5 µM
 2  CC(C)S(=O)(=O)n1cc(C(=O)NCC(=O)Nc2nc(-c3cccc(N4C[C@@H](C)O[C@@H](C)C4)c3)cs2)cc1Cl  BRG-1 (Homo sapiens)        IC50     1 to 5 µM
 3  Cc1cc(-c2cccc(-c3csc(NC(=O)CNC(=O)c4cn(S(=O)(=O)C(C)C)c(C)c4C)n3)c2)cc(C)n1  BRG-1 (Homo sapiens)        IC50   0.1 to 1 µM
 4  CS(=O)(=O)n1cc(C(=O)NCC(=O)Nc2nc(-c3cccc(-c4ccncc4)c3)cs2)c2ncccc21  BRG-1 (Homo sapiens)        IC50        > 5 µM
 5  Cc1nccc(-c2cccc(-c3csc(NC(=O)CNC(=O)c4cc(Cl)n(S(=O)(=O)C(C)C)c4)n3)c2)n1  BRG-1 (Homo sapiens)        IC50   0.1 to 1 µM
 6  Cc1cc(-c2cccc(-c3csc(NC(=O)CNC(=O)c4cc(Cl)n(S(=O)(=O)C(C)C)c4)n3)c2)nc(C)n1  BRG-1 (Homo sapiens)        IC50   0.1 to 1 µM
 7  Cc1cc(-c2cccc(-c3csc(NC(=O)CNC(=O)c4cn(S(C)(=O)=O)c5c4CCCC5)n3)c2)cc(C)n1  BRG-1 (Homo sapiens)        IC50   0.1 to 1 µM
 8  C[C@@H]1CN(c2cccc(-c3csc(NC(=O)CNC(=O)c4cn(S(C)(=O)=O)c5c4CCCC5)n3)c2)C[C@H](C)O1  BRG-1 (Homo sapiens)        IC50     1 to 5 µM
 9  Cc1nccc(-c2cccc(-c3csc(NC(=O)CNC(=O)c4cc(Cl)n(S(=O)(=O)C(C)C)c4)n3)n2)n1  BRG-1 (Homo sapiens)        IC50        > 5 µM
10  Cc1cc(-c2cccc(-c3csc(NC(=O)CNC(=O)c4cn(S(=O)(=O)C(C)C)c(C)c4C)n3)c2)ccn1  BRG-1 (Homo sapiens)        IC50     1 to 5 µM

---

molecular target: BRM (Homo sapiens); construct: made in house; host or cells: High Five insect cells; assay: ATPase catalytic activity assay (ADP-Glo), BRM; type: biochemical; conditions: 30 nM BRM, 400 μM ATP
Listing of entries alongside the reported BRM Max % Inhibition.
observable: BRM Max % Inhibition

> print(dat)
                                   compound            observable  assay.result
1  Cc1cc(-c2cccc(-c3csc(NC(=O)CNC(=O)c4cc(Cl)n(S(=O)(=O)C(C)C)c4)n3)c2)nc(C)n1 [Compound 32]  BRM Max % Inhibition          >95%
2  CC(C)S(=O)(=O)n1cc(C(=O)NCC(=O)Nc2nc(-c3cccc(-c4ccncc4)c3)cs2)c2ccccc21 [Compound 4]  BRM Max % Inhibition          >60%
3  CS(=O)(=O)n1cc(C(=O)NCC(=O)Nc2nc(-c3cccc(-c4ccncc4)c3)cs2)c2ncccc21 [Compound 3]  BRM Max % Inhibition          >40%
4  Cc1cc(-c2cccc(-c3csc(NC(=O)CNC(=O)c4cn(S(=O)(=O)C(C)C)c(C)c4C)n3)c2)nc(C)n1 [Compound 14]  BRM Max % Inhibition          >95%
5  Cc1cc(-c2cccc(-c3csc(NC(=O)CNC(=O)c4cn(S(C)(=O)=O)c5ccccc45)n3)n2)ncn1 [Compound 23]  BRM Max % Inhibition          >90%

---

Listing of entries alongside the reported BRM Max % Inhibition.
biological target: BRM (Homo sapiens, UniProt P51531); construct: made in house; host or cells: High Five insect cells; assay: ATPase catalytic activity assay (ADP-Glo), BRM; assay type: biochemical; conditions: 30 nM BRM, 400 μM ATP
Sequence (P51531 whole entry): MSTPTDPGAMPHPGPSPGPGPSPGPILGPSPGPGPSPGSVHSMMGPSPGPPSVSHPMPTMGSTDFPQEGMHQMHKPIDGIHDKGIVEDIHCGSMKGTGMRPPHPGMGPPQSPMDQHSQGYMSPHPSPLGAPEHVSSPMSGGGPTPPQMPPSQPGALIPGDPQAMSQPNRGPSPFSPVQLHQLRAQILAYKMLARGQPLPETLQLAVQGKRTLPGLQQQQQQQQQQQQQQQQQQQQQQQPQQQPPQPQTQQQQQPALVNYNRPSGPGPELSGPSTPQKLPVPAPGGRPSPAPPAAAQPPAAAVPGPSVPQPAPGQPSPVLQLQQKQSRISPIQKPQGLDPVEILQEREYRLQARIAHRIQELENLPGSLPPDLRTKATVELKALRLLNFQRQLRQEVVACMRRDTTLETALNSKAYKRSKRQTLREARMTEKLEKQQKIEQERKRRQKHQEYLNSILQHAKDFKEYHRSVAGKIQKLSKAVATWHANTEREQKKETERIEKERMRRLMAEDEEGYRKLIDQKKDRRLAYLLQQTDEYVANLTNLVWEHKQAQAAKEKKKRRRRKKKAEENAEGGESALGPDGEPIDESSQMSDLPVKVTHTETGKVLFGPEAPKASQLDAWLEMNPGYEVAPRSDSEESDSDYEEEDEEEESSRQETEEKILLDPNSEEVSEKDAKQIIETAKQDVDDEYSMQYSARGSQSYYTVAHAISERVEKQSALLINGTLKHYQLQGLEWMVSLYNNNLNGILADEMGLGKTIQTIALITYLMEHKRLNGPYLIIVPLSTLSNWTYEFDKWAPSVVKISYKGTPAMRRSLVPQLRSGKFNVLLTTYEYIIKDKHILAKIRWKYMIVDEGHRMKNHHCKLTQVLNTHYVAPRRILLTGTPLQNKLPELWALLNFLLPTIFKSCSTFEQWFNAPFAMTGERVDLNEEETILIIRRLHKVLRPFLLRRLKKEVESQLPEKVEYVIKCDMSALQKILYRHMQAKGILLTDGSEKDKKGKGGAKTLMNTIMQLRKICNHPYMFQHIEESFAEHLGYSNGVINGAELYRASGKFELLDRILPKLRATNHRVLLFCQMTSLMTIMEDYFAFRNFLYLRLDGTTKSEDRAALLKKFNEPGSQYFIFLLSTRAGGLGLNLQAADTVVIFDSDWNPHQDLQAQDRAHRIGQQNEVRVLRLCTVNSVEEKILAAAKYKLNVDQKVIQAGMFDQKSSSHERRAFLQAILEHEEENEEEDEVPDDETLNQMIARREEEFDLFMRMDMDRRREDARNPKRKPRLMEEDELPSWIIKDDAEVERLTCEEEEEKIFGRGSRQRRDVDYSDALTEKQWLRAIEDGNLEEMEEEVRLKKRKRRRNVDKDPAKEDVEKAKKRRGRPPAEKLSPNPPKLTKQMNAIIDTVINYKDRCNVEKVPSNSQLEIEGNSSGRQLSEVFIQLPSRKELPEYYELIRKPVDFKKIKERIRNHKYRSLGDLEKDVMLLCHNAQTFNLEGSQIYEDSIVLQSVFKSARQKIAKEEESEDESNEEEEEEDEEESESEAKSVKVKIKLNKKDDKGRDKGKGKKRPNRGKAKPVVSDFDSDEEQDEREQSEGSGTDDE
observable: BRM Max % Inhibition

> print(dat)
                                    molecule            observable  assay.result
 1  Cc1nccc(-c2cccc(-c3csc(NC(=O)CNC(=O)c4cc(Cl)n(S(=O)(=O)C(C)C)c4)n3)n2)n1 [Compound 24]  BRM Max % Inhibition          >60%
 2  C[C@@H]1CN(c2cccc(-c3csc(NC(=O)CNC(=O)c4cn(S(C)(=O)=O)c5ccccc45)n3)c2)C[C@H](C)O1 [Compound 26]  BRM Max % Inhibition          >90%
 3  Cc1cc(-c2cccc(-c3csc(NC(=O)CNC(=O)c4cc(C)n(S(=O)(=O)C(C)C)c4)n3)c2)cc(C)n1 [Compound 7]  BRM Max % Inhibition          >95%
 4  Cc1cc(-c2cccc(-c3csc(NC(=O)CNC(=O)c4cn(S(=O)(=O)C(C)C)c(C)c4C)n3)c2)cc(C)n1 [Compound 12]  BRM Max % Inhibition          >95%
 5  Cc1cc(-c2cccc(-c3csc(NC(=O)CNC(=O)c4cc(C5CC5)n(S(C)(=O)=O)c4)n3)c2)cc(C)n1 [Compound 19]  BRM Max % Inhibition          >95%
 6  Cc1cc(-c2cccc(-c3csc(NC(=O)CNC(=O)c4cn(S(=O)(=O)C(C)C)c5c4CCCC5)n3)c2)cc(C)n1 [Compound 20]  BRM Max % Inhibition          >95%
 7  Cc1c(C(=O)NCC(=O)Nc2nc(-c3cccc(-c4ccncc4)c3)cs2)cn(S(=O)(=O)C(C)C)c1C [Compound 10]  BRM Max % Inhibition          >70%
 8  Cc1nccc(-c2cccc(-c3csc(NC(=O)CNC(=O)c4cn(S(C)(=O)=O)c5ccccc45)n3)n2)n1 [Compound 22]  BRM Max % Inhibition          >80%
 9  CC(C)S(=O)(=O)n1cc(C(=O)NCC(=O)Nc2nc(-c3cccc(-c4ccncc4)c3)cs2)c(Cl)c1Cl [Compound 30]  BRM Max % Inhibition          >50%
10  Cc1c(C(=O)NCC(=O)Nc2nc(-c3cccc(-c4ccncc4)c3)cs2)cn(S(C)(=O)=O)c1C [Compound 11]  BRM Max % Inhibition          >95%
11  Cc1cc(-c2cccc(-c3csc(NC(=O)CNC(=O)c4cc(Cl)n(S(=O)(=O)C(C)C)c4)n3)n2)ncn1 [Compound 27]  BRM Max % Inhibition          >80%
